Cited source for all entries: paper PMC4242493

Tested system: MaxL homodimer (Homo sapiens, UniProt P61244 1-160)
Sequence (P61244 whole entry): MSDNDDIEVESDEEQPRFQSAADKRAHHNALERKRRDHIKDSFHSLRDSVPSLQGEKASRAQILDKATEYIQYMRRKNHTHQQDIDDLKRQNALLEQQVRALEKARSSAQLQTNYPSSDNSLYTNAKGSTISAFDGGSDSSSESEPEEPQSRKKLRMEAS
Measurement notes: universal protein-binding microarray (PBM); PBS-based mixture, 10 nM His-tagged protein dimer, 2% milk, 200 ng/uL BSA, 50 ng/uL salmon testes DNA, 0.02% TX-100; detection with Alexa 488 anti-His antibody;; high values mean tight binding;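 note: fluorescence intensity normalized to that of the highest-ranked 8-mer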
Run conditions: protein: recombinant; tags: C-terminal His-tag (pET21a); chain copies: 2; dsDNA, one strand shown
In all, about 33,000 sequences were measured (“normalized occupancy”: median about 0.075, highest 2% from about 0.095 on). The sample holds the highest values, similar sequences and a random draw of the others, so the mix is not that of the screen.
Reported property: binding signal

Some entries whose results are on file:
Consider the sequence `CGCATGCA` and give its measured binding signal.
0.122 normalized occupancy

Consider the sequence `ACTCGTGA` and give its measured binding signal.
0.0957 normalized occupancy

Consider the sequence `CGCATAGC` and give its measured binding signal.
0.0734 normalized occupancy

Consider the sequence `ATTCTATG` and give its measured binding signal.
0.0827 normalized occupancy

Give binding signal for each listed item.
1. AATAACCC
2. AATCGTGG

["0.0806 normalized occupancy", "0.0832 normalized occupancy"]

Give binding signal for each listed item.
1. CTCGATAC
2. CAGCCGCA
3. ATGCCCGG
4. AGCATAGG
5. AAGTAGGA
6. ACTCGTGC
7. AGCCCAAA
8. CGACATGC

1. 0.0749 normalized occupancy
2. 0.0718 normalized occupancy
3. 0.0744 normalized occupancy
4. 0.0718 normalized occupancy
5. 0.0726 normalized occupancy
6. 0.0933 normalized occupancy
7. 0.0722 normalized occupancy
8. 0.0992 normalized occupancy
